Reported pIC50 by item:
# Test system: SH-SY5Y
# assay-procedure: Antiproliferative activity against human SH-SY5Y cells after 72 hrs by MTT assay
# Format: functional, cell-based
pIC50: −log10 of the molar value.

INSERT INTO assay_data (compound, target_of_assay, result) VALUES
  ('O=C(Cn1cc(CNC2(c3ccccc3F)CCCC2)c2ccccc21)NC1CC1', 'SH-SY5Y', '< 4.00');

Challenge: Consider the compound shown here: NC(=O)C1CCN(c2nc(CSc3ccccc3)nc3sc4c(c23)CCCC4)CC1 What is its recorded pIC50?
Response given: 4.94

Challenge: Look up pIC50 for this compound: CCOc1ccc(-n2c(SCC(=O)N3CCOCC3)nnc2-c2cccc(C)c2)cc1
Response given: < 4.00

Challenge: Requested read-out: pIC50. Entry: COc1ccc(NS(=O)(=O)c2ccc3c(c2)N(C(C)=O)CC(C)O3)cc1Cl (centres undefined)
Response given: < 4.00

Attribution: ChEMBL document CHEMBL4130419
